# target: human PAD4 (hPAD4) (Homo sapiens)
# Sequence (Q9UM07 whole entry): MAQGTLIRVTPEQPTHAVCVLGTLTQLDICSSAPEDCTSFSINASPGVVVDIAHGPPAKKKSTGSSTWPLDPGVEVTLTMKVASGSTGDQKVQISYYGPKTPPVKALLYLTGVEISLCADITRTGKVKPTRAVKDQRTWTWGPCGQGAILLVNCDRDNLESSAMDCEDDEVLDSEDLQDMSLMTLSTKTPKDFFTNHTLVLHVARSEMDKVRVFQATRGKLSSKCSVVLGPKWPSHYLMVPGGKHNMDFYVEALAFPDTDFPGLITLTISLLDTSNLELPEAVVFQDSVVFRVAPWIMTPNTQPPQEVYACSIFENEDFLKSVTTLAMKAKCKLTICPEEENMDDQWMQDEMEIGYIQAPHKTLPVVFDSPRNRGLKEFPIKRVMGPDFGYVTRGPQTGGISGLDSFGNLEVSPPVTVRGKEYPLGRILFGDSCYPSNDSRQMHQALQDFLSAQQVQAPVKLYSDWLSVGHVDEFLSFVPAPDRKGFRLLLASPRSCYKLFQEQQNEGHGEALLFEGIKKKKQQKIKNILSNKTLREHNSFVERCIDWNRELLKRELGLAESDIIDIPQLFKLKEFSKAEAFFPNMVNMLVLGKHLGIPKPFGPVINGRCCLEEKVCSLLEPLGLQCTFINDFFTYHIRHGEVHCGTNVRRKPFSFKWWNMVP
# assay_name: RFMS Human PAD4 Functional Assay
# Format: biochemical
# assay_setup: hPAD4 RFMS IC50, human PAD4, rapid-fire mass spectrum (RFMS) assay; 5 nM hPAD4, 250 μM BAEE
Threshold check on IC50: strictly below 100 nM is yes; on or above 100 nM is no.

Exercise: Does the reported IC50 of COc1cc(C(=O)N2C[C@H]3CC[C@@H]2[C@@H]3N)cc2nc(-c3cc4cccc(Nc5cn(C)nc5C)c4n3CC3CC3C)n(C)c12 (stereo partly drawn) [Example 177] stay below 100 nM?
Key: yes

Exercise: Does the reported IC50 of COc1cc(C(=O)N2C[C@H]3CC[C@@H]2[C@@H]3N)cc2nc(-c3cc4cccc(-c5cn[nH]c5)c4n3CC3CC3(Cl)Cl)n(C)c12 (stereo partly drawn) [Example 151] stay below 100 nM?
Key: no

Exercise: Does the reported IC50 of COc1cc(C(=O)N2C[C@H]3CC[C@@H]2[C@@H]3N)cc2nc(-c3cc4cccc(C5CCCNC5)c4n3CC3CC3)n(C)c12 (stereo partly drawn) [Example 12] stay below 100 nM?
Key: yes

Exercise: Does the reported IC50 of COc1cc(C(=O)N2C[C@H]3CC[C@@H]2[C@@H]3N)cc2nc(-c3cc4cccc(C5CCN(C(=O)NC(C)C)CC5)c4n3CC3CC3)n(C)c12 [Example 252] stay below 100 nM?
Key: yes

Exercise: Does the reported IC50 of COc1cc(C(=O)N2C[C@H]3CC[C@@H]2[C@@H]3N)cc2nc(-c3cc4cccc(C5CC(C(=O)N6CC[C@H](O)C6)C5)c4n3CC3CC3)n(C)c12 (single isomer, unassigned) [Example 54] stay below 100 nM?
Key: yes

Exercise: Does the reported IC50 of COc1cc(C(=O)N2C[C@H]3CC[C@@H]2[C@@H]3N)cc2nc(-c3cc4cccc(CC5CCOCC5)c4n3CC3CC3)n(C)c12 [Example 31] stay below 100 nM?
Key: no

Exercise: Does the reported IC50 of COc1cc(C(=O)N2C[C@H]3CC[C@@H]2[C@@H]3N)cc2nc(-c3cc4cccc(C5CN(C(=O)Cc6ccncc6)C5)c4n3CC3CC3)n(C)c12 [Example 73] stay below 100 nM?
Key: yes

Exercise: Does the reported IC50 of COc1cc(C(=O)N2CC3CCC2[C@@H]3N)cc2nc(-c3cc4cccc(-c5ccc(NC(C)=O)cc5)c4n3CC3CC3)n(C)c12 (stereo partly drawn) [Example 133] stay below 100 nM?
Key: no

Exercise: Does the reported IC50 of COc1cc(C(=O)N2C[C@H]3CC[C@@H]2[C@@H]3N)cc2nc(-c3cc4cccc(Cl)c4n3CC3CC3)n(C)c12 [Example 145] stay below 100 nM?
Key: no

Exercise: Does the reported IC50 of COc1cc(C(=O)N2C[C@H]3CC[C@@H]2[C@@H]3N)cc2nc(-c3cc4cccc(C5CN(C)C5)c4n3CC3CC3)n(C)c12 [Example 22] stay below 100 nM?
Key: yes

Exercise: Does the reported IC50 of COc1cc(C(=O)N2C[C@H]3CC[C@@H]2[C@@H]3N)cc2nc(-c3cc4cccc(CCc5c(C)n[nH]c5C)c4n3CC3CC3)n(C)c12 [Example 33] stay below 100 nM?
Key: no
